inhibition for assorted molecules
- TARGET_ENTITY: L-lactate dehydrogenase (Plasmodium falciparum (isolate CDC / Honduras))
- ASSAY_REMARKS: PfLDH activity inhibition – cell lysate, 3D7 strain, counter-screen for P. falciparum growth inhibition project (AID 2304);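 further: 0% = vehicle and 100% = reference inhibitor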
- CONDITION_LABEL: P. falciparum 3D7 crude extract, LDH APAD/NBT absorbance; at 2 µM; hits give high values
Hi! Could you send only the number? It should be in %, unit omitted.

Record excerpt, results attached:
COc1ccc2nccc([C@@H](O)CN3CCC(NCc4ccc5nnsc5c4)CC3)c2c1 = 5
Cn1nccc1C(=O)NCCNCc1ccc(-c2ccc(-c3nc4ccc(C(F)(F)F)cc4[nH]3)cc2)cc1 = -2
CCCCCCNc1c2ccccc2nc2ccccc12 = -3

Could you share which inhibition value was measured for COc1ccccc1NC(=O)c1cc(C(=O)c2cc(Cl)ccc2O)cn(-c2ccccc2OC)c1=O ? 7

# input molecule: COc1ccc2ncc(F)c(CCN3CC[C@H](NCc4cc5c(s4)CCCN5)[C@H](O)C3)c2n1 ; wanted: its inhibition 0
